Tested on: MCF7
assay.remarks: Cytotoxicity against human MCF7 cells after 24 hrs in presence of CuCl2
Assay type: functional, cell-based
test.parameters: MCF7, 24 h
outcome.measure: IC50 (µM)
Please reply with the bare figure in µM and do not write the unit itself.

Please give the measured IC50 for this compound: `COC(=O)c1cccc2oc(-c3cccc4oc(-c5ccccc5O)nc34)nc12` 4.6
